Hello, the source for this data is paper PMC5034536, in case you need it.

# –T · ΔS1 listing for each entry below
TARGET: TtSlyDFL (full-length SlyD from Thermus thermophilus) (Thermus thermophilus, UniProt Q5SLE7)
Sequence (Q5SLE7 1-149): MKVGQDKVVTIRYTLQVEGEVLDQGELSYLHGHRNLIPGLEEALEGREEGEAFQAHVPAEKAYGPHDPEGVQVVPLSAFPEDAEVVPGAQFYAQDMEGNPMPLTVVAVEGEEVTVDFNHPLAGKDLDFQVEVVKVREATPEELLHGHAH
ASSAY_INFO: ITC binding of peptides to full-length TtSlyD
ASSAY_CONTEXT: ITC two-site model, site 1 (IF domain); 25 °C
No end group written: not given here.
A number alone suffices; assume kJ/mol.

- SUBSTANCE: "TRYWNAKMKPFIFGA-NH2 [S2-P25A]"
  –T · ΔS1 / kJ/mol: 30.1
- SUBSTANCE: "WNPKMKPFIFGARNK-NH2 [S2-plus1]"
  –T · ΔS1 / kJ/mol: 9.62
- SUBSTANCE: "KMKPFIFGARNKVHI-NH2 [S2-plus2]"
  –T · ΔS1 / kJ/mol: 16.3
- SUBSTANCE: "GHQTRYWNPKMKPFI-NH2 [S2-minus1]"
  –T · ΔS1 / kJ/mol: 34.3
- SUBSTANCE: "TRYWNPKMKEFIFGA-NH2 [S2-P29E]"
  –T · ΔS1 / kJ/mol: 30.1

**Query** // lookup –T · ΔS1 for KAGVHFGHQTRYWNP-NH2 [S2-minus3]
**Result** 39.3

**Query** // lookup –T · ΔS1 for TRYANPKMKPFIFGA-NH2 [S2-W23A]
**Result** 31.4

**Query** // lookup –T · ΔS1 for VHFGHQTRYWNPKMK-NH2 [S2-minus2]
**Result** 33.9
